system: Klebsiella pneumoniae; assay: Antibacterial activity against Klebsiella pneumoniae ATCC BAA-2146 expressing NDM-1 after 18 hrs by 2 fold serial dilution method; assay type: functional; conditions: ATCC BAA-2146, 18 h
Bridge positions count the residues as written; N and C are the ends. Square brackets hold non-standard residues; d marks the D form. Peptide text beside a SMILES is read from it. * marks the point of attachment. Benzoyl(4-Ph) = O=C(c1ccc(-c2ccccc2)cc1)*; dBip = N[C@H](Cc1ccc(-c2ccccc2)cc1)C(=O)O; Phe(4-NH2) = Nc1ccc(C[C@H](N)C(=O)O)cc1; dDab = NCC[C@@H](N)C(=O)O; Octanoyl = CCCCCCCC(=O)*; Dab = NCC[C@H](N)C(=O)O
READOUT LABEL: MIC (µg/mL)
Answers are plain numbers, in µg/mL.

Examples from the recorded data:
COMPOUND: CCCCCCCC(=O)N[C@@H](CCN)C(=O)N[C@H](C(=O)N[C@@H](CCN)C(=O)N[C@H]1CCNC(=O)[C@H]([C@@H](C)O)NC(=O)[C@H](CCN)NC(=O)[C@H](CCN)NC(=O)[C@H](CC(C)C)NC(=O)[C@@H](Cc2ccc(-c3ccccc3)cc2)NC(=O)[C@H](CCN)NC1=O)[C@@H](C)O (Octanoyl-[Dab]T[Dab][Dab][Dab][dBip]L[Dab][Dab]T; lactam 4-C)
MIC (µg/mL): 1
--
COMPOUND: CCCCCCCC(=O)N[C@@H](CCN)C(=O)N[C@H](C(=O)NCC(=O)N[C@H]1CCNC(=O)[C@H]([C@@H](C)O)NC(=O)[C@H](CCN)NC(=O)[C@H](CCN)NC(=O)[C@H](CC(C)C)NC(=O)[C@@H](Cc2ccccc2)NC(=O)[C@H](CCN)NC1=O)[C@@H](C)O (Octanoyl-[Dab]TG[Dab][Dab][dF]L[Dab][Dab]T; lactam 4-C)
MIC (µg/mL): 0.5
--
COMPOUND: CCCCCCCC(=O)N[C@@H](CCN)C(=O)N[C@H](C(=O)N[C@@H](CCN)C(=O)N[C@H]1CCNC(=O)[C@H]([C@@H](C)O)NC(=O)[C@H](Cc2ccc(N)cc2)NC(=O)[C@H](CCN)NC(=O)[C@H](CC(C)C)NC(=O)[C@@H](Cc2ccccc2)NC(=O)[C@H](CCN)NC1=O)[C@@H](C)O (Octanoyl-[Dab]T[Dab][Dab][Dab][dF]L[Dab][Phe(4-NH2)]T; lactam 4-C)
MIC (µg/mL): 16
--
COMPOUND: CCCCCCCC(=O)N[C@@H](CCN)C(=O)N[C@H](C(=O)N[C@@H](CCN)C(=O)N[C@H]1CCNC(=O)[C@H]([C@@H](C)O)NC(=O)[C@H](CCCNC(=N)N)NC(=O)[C@H](CCN)NC(=O)[C@H](CC(C)C)NC(=O)[C@@H](Cc2ccccc2)NC(=O)[C@H](CCN)NC1=O)[C@@H](C)O (Octanoyl-[Dab]T[Dab][Dab][Dab][dF]L[Dab]RT; lactam 4-C)
MIC (µg/mL): 4
--
COMPOUND: CC(C)C[C@@H]1NC(=O)[C@@H](Cc2ccccc2)NC(=O)[C@H](CCN)NC(=O)[C@@H](NC(=O)[C@H](CCN)NC(=O)[C@@H](NC(=O)[C@H](CCN)NC(=O)c2ccc(-c3ccccc3)cc2)[C@@H](C)O)CCNC(=O)[C@H]([C@@H](C)O)NC(=O)[C@H](CCN)NC(=O)[C@H](CCN)NC1=O ({Benzoyl(4-Ph)}-[Dab]T[Dab][Dab][Dab][dF]L[Dab][Dab]T; lactam 4-C)
MIC (µg/mL): 0.5

Now for the compound whose MIC we want.
### Prompt # return MIC of CCCCCCCC(=O)N[C@H](CCN)C(=O)N[C@H](C(=O)NCC(=O)N[C@H]1CCNC(=O)[C@H]([C@@H](C)O)NC(=O)[C@H](CCN)NC(=O)[C@H](CCN)NC(=O)[C@H](CC(C)C)NC(=O)[C@@H](Cc2ccccc2)NC(=O)[C@H](CCN)NC1=O)[C@@H](C)O (Octanoyl-[dDab]TG[Dab][Dab][dF]L[Dab][Dab]T; lactam 4-C) (system: Klebsiella pneumoniae)
### Response 32
